The measured values listed here are drawn from the supplement of paper PMC10567573.

B1: EIF5 (parent)
chain: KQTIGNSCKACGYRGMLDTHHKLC

Variants of: B1
Test: protein stability index of a GFP-peptide fusion (GPS, HEK-293T) (PSI 1-6); higher = more stable;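 also: lentivirally expressed fusions sorted by FACS into six bins by GFP to DsRed ratio, PSI derived from sequencing read proportions per bin multiplied by bin number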
Conditions: c terminus: a fixed tail appended
measured.attribute: protein stability index

[[record]]
sequence_data = "KQTIGNSCKACGYRGMLDTHHKLA [C24A]"
measured_attribute = "protein stability index"
data_value = 1.99

[[record]]
sequence_data = "KQTIGNSCKAFGYRGMLDTHHKLC [C11F]"
measured_attribute = "protein stability index"
data_value = 2.17

[[record]]
sequence_data = "KQTIGNSCDACGYRGMLDTHHKLC [K9D]"
measured_attribute = "protein stability index"
data_value = 3.87

[[record]]
sequence_data = "KQTIGNSCKANGYRGMLDTHHKLC [C11N]"
measured_attribute = "protein stability index"
data_value = 1.94

[[record]]
sequence_data = "KQTIGNSCYACGYRGMLDTHHKLC [K9Y]"
measured_attribute = "protein stability index"
data_value = 2.61

[[record]]
sequence_data = "KQTIGNSCKACGNRGMLDTHHKLC [Y13N]"
measured_attribute = "protein stability index"
data_value = 3.46

[[record]]
sequence_data = "KQTIGNSCKACCYRGMLDTHHKLC [G12C]"
measured_attribute = "protein stability index"
data_value = 2.56

[[record]]
sequence_data = "KQTIGNSCKACGYRGMMDTHHKLC [L17M]"
measured_attribute = "protein stability index"
data_value = 2.96

[[record]]
sequence_data = "KQTIGNSCKACGYRGMLDTHSKLC [H21S]"
measured_attribute = "protein stability index"
data_value = 2.9

[[record]]
sequence_data = "CQTIGNSCKACGYRGMLDTHHKLC [K1C]"
measured_attribute = "protein stability index"
data_value = 2.97

[[record]]
sequence_data = "VQTIGNSCKACGYRGMLDTHHKLC [K1V]"
measured_attribute = "protein stability index"
data_value = 2.95

[[record]]
sequence_data = "KQTIGNSCKACGMRGMLDTHHKLC [Y13M]"
measured_attribute = "protein stability index"
data_value = 3.32

[[record]]
sequence_data = "KQTIGNSCKACGYRGMIDTHHKLC [L17I]"
measured_attribute = "protein stability index"
data_value = 3.33

[[record]]
sequence_data = "KQTIGNSCKACGYRGMLDHHHKLC [T19H]"
measured_attribute = "protein stability index"
data_value = 3.43

[[record]]
sequence_data = "IQTIGNSCKACGYRGMLDTHHKLC [K1I]"
measured_attribute = "protein stability index"
data_value = 2.04

[[record]]
sequence_data = "KQTIGNSCKACLYRGMLDTHHKLC [G12L]"
measured_attribute = "protein stability index"
data_value = 1.92

[[record]]
sequence_data = "KQTIPNSCKACGYRGMLDTHHKLC [G5P]"
measured_attribute = "protein stability index"
data_value = 3.41

[[record]]
sequence_data = "KQTGGNSCKACGYRGMLDTHHKLC [I4G]"
measured_attribute = "protein stability index"
data_value = 3.56

[[record]]
sequence_data = "KQTIDNSCKACGYRGMLDTHHKLC [G5D]"
measured_attribute = "protein stability index"
data_value = 3.53

[[record]]
sequence_data = "KQTIGNSCKACGYRGMLRTHHKLC [D18R]"
measured_attribute = "protein stability index"
data_value = 2.65

[[record]]
sequence_data = "KQTIGNSCKACGYRGMLSTHHKLC [D18S]"
measured_attribute = "protein stability index"
data_value = 3.22

[[record]]
sequence_data = "KQTIINSCKACGYRGMLDTHHKLC [G5I]"
measured_attribute = "protein stability index"
data_value = 3.12

[[record]]
sequence_data = "KQTIGNSCKACGYRWMLDTHHKLC [G15W]"
measured_attribute = "protein stability index"
data_value = 1.52

[[record]]
sequence_data = "KQTIGNSCKACGYRYMLDTHHKLC [G15Y]"
measured_attribute = "protein stability index"
data_value = 2.59

[[record]]
sequence_data = "KQTIGNSCKACGLRGMLDTHHKLC [Y13L]"
measured_attribute = "protein stability index"
data_value = 2.94

[[record]]
sequence_data = "KQTIGNSCKCCGYRGMLDTHHKLC [A10C]"
measured_attribute = "protein stability index"
data_value = 3.09

[[record]]
sequence_data = "KQTIGNSCKACGYAGMLDTHHKLC [R14A]"
measured_attribute = "protein stability index"
data_value = 2.93

[[record]]
sequence_data = "KQTIGNICKACGYRGMLDTHHKLC [S7I]"
measured_attribute = "protein stability index"
data_value = 4.31

[[record]]
sequence_data = "KQTIGNSCKACGYKGMLDTHHKLC [R14K]"
measured_attribute = "protein stability index"
data_value = 3.89

[[record]]
sequence_data = "KQTIGNSCKACQYRGMLDTHHKLC [G12Q]"
measured_attribute = "protein stability index"
data_value = 2.54

[[record]]
sequence_data = "KQTIGNSCKACGYRGMLDTHHHLC [K22H]"
measured_attribute = "protein stability index"
data_value = 3.37

[[record]]
sequence_data = "KQTIGHSCKACGYRGMLDTHHKLC [N6H]"
measured_attribute = "protein stability index"
data_value = 3.03

[[record]]
sequence_data = "KQTIGNSCKACGYRGQLDTHHKLC [M16Q]"
measured_attribute = "protein stability index"
data_value = 3.9

[[record]]
sequence_data = "KQTIGNSCKACHYRGMLDTHHKLC [G12H]"
measured_attribute = "protein stability index"
data_value = 2.36

[[record]]
sequence_data = "KQTIGNSCKACGYRGMLCTHHKLC [D18C]"
measured_attribute = "protein stability index"
data_value = 3.19

[[record]]
sequence_data = "KQTIGNSCKACGYRGMLPTHHKLC [D18P]"
measured_attribute = "protein stability index"
data_value = 2.71

[[record]]
sequence_data = "KQTIGTSCKACGYRGMLDTHHKLC [N6T]"
measured_attribute = "protein stability index"
data_value = 3.66

[[record]]
sequence_data = "KQTIGNSCAACGYRGMLDTHHKLC [K9A]"
measured_attribute = "protein stability index"
data_value = 3.57

[[record]]
sequence_data = "KQTIGNSCKACDYRGMLDTHHKLC [G12D]"
measured_attribute = "protein stability index"
data_value = 2.13

[[record]]
sequence_data = "KQTIGNSCKACGYRGMLDTHHSLC [K22S]"
measured_attribute = "protein stability index"
data_value = 2.79

[[record]]
sequence_data = "KQTIGNSCKACGYRGMLDTHHKQC [L23Q]"
measured_attribute = "protein stability index"
data_value = 3.82

[[record]]
sequence_data = "KETIGNSCKACGYRGMLDTHHKLC [Q2E]"
measured_attribute = "protein stability index"
data_value = 3.74

[[record]]
sequence_data = "KQTIGNSCKACSYRGMLDTHHKLC [G12S]"
measured_attribute = "protein stability index"
data_value = 1.52

[[record]]
sequence_data = "KQTIGNSCKACGYRGMLDTHCKLC [H21C]"
measured_attribute = "protein stability index"
data_value = 3.17

[[record]]
sequence_data = "KQTIGNSCKACGYRGMLDTHLKLC [H21L]"
measured_attribute = "protein stability index"
data_value = 2.77

[[record]]
sequence_data = "KQTIGNCCKACGYRGMLDTHHKLC [S7C]"
measured_attribute = "protein stability index"
data_value = 3.5

